test: Cytotoxicity against human HepDES19 cells after 48 hrs by MTT assay
Format: cell-based

{"compound": "CCC(C)NS(=O)(=O)c1ccc(F)c(C(=O)NCc2ccc(F)c(F)c2)c1 (stereo not drawn)", "CC50 at 48 h": "> 50 µM"}
{"compound": "O=C(NCc1ccccc1)c1ccc(Cl)c(S(=O)(=O)N2CCCCCC2)c1", "CC50 at 48 h": "> 50 µM"}
{"compound": "O=C(NCc1ccc(F)c(F)c1)c1cc(S(=O)(=O)NC2CCCC2)ccc1F", "CC50 at 48 h": "> 50 µM"}

====

Recorded IC50 by entry
System: Hepatitis B virus
test: Inhibition of HBV DNA replication
Format: functional, organism-based

{"smilesRepresentation": "CCCCC/N=C(\\c1ccc(=O)n(CCCCC)c1)c1ccc(OC)cc1O", "IC50 / µM": 30}
{"smilesRepresentation": "CC(C)Cc1sc(-c2nccs2)nc1C(=O)NCc1ccc(F)cc1", "IC50 / µM": 0.14}
